- System: USA300 CA-MRSA
- assay_name: MIC against clinical isolates of MRSA
- Type: cell-based, Staphylococcus aureus
- applied_conditions: Staphylococcus aureus, clinical isolate, USA300; read-out: MIC USA300 CA-MRSA
This listing pairs compounds with measured MIC.
Kindly answer with a numeric value in µg/mL, unit omitted.

What does the data say about its MIC? Entry: CCc1nc(N)nc(N)c1C#CCc1cc(OC)cc(-c2ccncc2)c1
0.045

What does the data say about its MIC? Entry: COc1cc(-c2ccncc2)cc(C(C)C#Cc2c(C)nc(N)nc2N)c1 (stereo not drawn)
0.09

What does the data say about its MIC? Entry: CCc1nc(N)nc(N)c1C#CC(C)c1cc(OC)cc(-c2ccncc2)c1 (stereo not drawn)
0.09

What does the data say about its MIC? Entry: CCc1nc(N)nc(N)c1C#CCc1cccc(-c2cccnc2)c1
0.36

What does the data say about its MIC? Entry: CCc1nc(N)nc(N)c1C#CCc1cc(-c2ccncc2)ccc1OC
0.08

// moving on: another record for MIC
What does the data say about its MIC? Entry: CCc1nc(N)nc(N)c1C#CCc1cccc(-c2ccncc2)c1
0.045

----------
- study_target: S. aureus DHFR (Staphylococcus aureus)
- Construct: the DHFR gene was inserted into vector pET41 with a His8 tag for purification; His8; made in house; host or cells: E. coli BL21 (DE3)
- Sequence (P0A017 whole entry): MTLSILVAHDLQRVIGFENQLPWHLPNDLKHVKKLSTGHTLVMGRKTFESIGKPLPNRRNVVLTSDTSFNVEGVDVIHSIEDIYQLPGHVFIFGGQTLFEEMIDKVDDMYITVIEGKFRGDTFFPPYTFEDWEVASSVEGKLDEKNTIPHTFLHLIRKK
- assay_name: biochemical
- Type: biochemical
measure_name: pIC50
On this scale, pIC50 is minus log10 of a concentration expressed in M (mol/L).

What does the data say about its pIC50? Entry: CCc1nc(N)nc(N)c1C#CCc1cc(OC)cc(-c2ccncc2)c1 [Compound 27]
7.92

What does the data say about its pIC50? Entry: CCc1nc(N)nc(N)c1C#CCc1cccc(-c2cncnc2)c1 [Compound 37]
7.46

What does the data say about its pIC50? Entry: CCc1nc(N)nc(N)c1C#CC(C)c1cc(OC)cc(-c2ccncc2)c1 (stereo not drawn) [Compound 25]
7.72

----------
This listing pairs compounds with measured IC50.
- study_target: S. aureus DHFR (Staphylococcus aureus)
- Construct: the DHFR gene was inserted into vector pET41 with a His8 tag for purification; His8; made in house; host or cells: E. coli BL21 (DE3)
- assay_name: biochemical
- Format: biochemical
- applied_conditions: S. aureus DHFR; average of at least three measurements; read-out: IC50 (nM) Sa

Below are worked cases with known answers.
What does the data say about its IC50? Entry: CCc1nc(N)nc(N)c1C#CCc1cccc(-c2ccccc2)c1 [Compound 8]
28 nM

What does the data say about its IC50? Entry: CCc1nc(N)nc(N)c1C#CCc1cccc(-c2cccnc2)c1 [Compound 36]
33 nM

What does the data say about its IC50? Entry: COc1cc(-c2ccncc2)cc(C(C)C#Cc2c(C)nc(N)nc2N)c1 (centres unmarked) [Compound 24]
26 nM

What does the data say about its IC50? Entry: COc1cc(-c2ccc(C)cc2)cc(C(C)C#Cc2c(C)nc(N)nc2N)c1 (racemic) [Compound 2]
410 nM

What does the data say about its IC50? Entry: CCc1nc(N)nc(N)c1C#CCc1cc(-c2ccncc2)ccc1OC [Compound 26]
21 nM

What does the data say about its IC50? Entry: CCc1nc(N)nc(N)c1C#CCc1cc(-c2ccccc2)ccc1OC [Compound 7]
2.4 nM

What does the data say about its IC50? Entry: COc1ccc(-c2ccccc2)cc1C(C)C#Cc1c(C)nc(N)nc1N (centres unmarked) [Compound 10]
75 nM

What does the data say about its IC50? Entry: CCc1nc(N)nc(N)c1C#CCc1cc(OC)cc(-c2ccccc2)c1 [Compound 9]
59 nM

---
What does the data say about its IC50? Entry: COc1cc(C(C)C#Cc2c(C)nc(N)nc2N)cc(N2CCOCC2)c1 (centres unmarked) [Compound 31]
29 nM

What does the data say about its IC50? Entry: CCc1nc(N)nc(N)c1C#CC(C)c1cc(-c2ccccc2)ccc1OC (centres unmarked) [Compound 11]
67 nM

What does the data say about its IC50? Entry: CCc1nc(N)nc(N)c1C#CCc1cccc(-c2ccncc2)c1 [Compound 28]
20 nM

The reported numbers originate from paper PMC3274548.
